# HER2 cytoplasmic domain (Homo sapiens, UniProt P04626): IC50 values follow
# Sequence (P04626 676-1255 limits assumed): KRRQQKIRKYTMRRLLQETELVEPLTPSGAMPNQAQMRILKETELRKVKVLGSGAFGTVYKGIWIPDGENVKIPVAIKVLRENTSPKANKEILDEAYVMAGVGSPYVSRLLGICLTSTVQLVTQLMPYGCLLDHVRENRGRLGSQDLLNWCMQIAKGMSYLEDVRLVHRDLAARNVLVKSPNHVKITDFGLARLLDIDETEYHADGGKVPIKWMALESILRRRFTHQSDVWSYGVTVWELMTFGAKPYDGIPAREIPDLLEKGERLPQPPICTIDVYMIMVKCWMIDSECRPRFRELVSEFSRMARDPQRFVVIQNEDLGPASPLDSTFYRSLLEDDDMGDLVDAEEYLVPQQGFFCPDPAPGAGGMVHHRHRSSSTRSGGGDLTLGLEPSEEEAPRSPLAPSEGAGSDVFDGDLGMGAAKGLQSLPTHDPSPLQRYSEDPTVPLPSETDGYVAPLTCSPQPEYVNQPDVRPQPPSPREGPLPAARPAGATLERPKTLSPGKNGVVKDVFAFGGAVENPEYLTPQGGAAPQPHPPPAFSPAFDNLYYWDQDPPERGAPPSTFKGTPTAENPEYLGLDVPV

Sample Smiles: COCCON=Cc1c(N)ncnc1Oc1ccc2[nH]c(C)cc2c1F
IC50: ~10 µM

Sample Smiles: C=CCON=Cc1c(N)ncnc1Oc1ccc2[nH]c(C)cc2c1F
IC50: > 100 µM

Sample Smiles: CON=Cc1c(N)ncnc1Oc1ccc(NC(=O)Nc2ccccc2F)c(Cl)c1
IC50: > 10 µM

Sample Smiles: Cc1cc2c(F)c(Oc3ncnc(N)c3C=NOCCN(C)C)ccc2[nH]1
IC50: 36.1 µM

Sample Smiles: CON=Cc1c(N)ncnc1Oc1ccc2ncccc2c1
IC50: > 100 µM

Sample Smiles: CON=Cc1c(N)ncnc1OCc1cccc(F)c1
IC50: > 10 µM

Sample Smiles: CNC(=O)n1c(C)cc2cc(Oc3ncnc(N)c3C=NOC)ccc21
IC50: ~100 µM

Sample Smiles: CON=Cc1c(N)ncnc1Oc1ccc(OC(=O)Nc2cccc(Cl)c2)cc1
IC50: > 100 µM

Record for CON=Cc1c(N)ncnc1Oc1ccc(NC(=O)NC2CCCCC2)c(Cl)c1 under target or system HER2 cytoplasmic domain (Homo sapiens, UniProt P04626): IC50 reported as > 10 µM

Record for Cc1cc2c(F)c(Oc3ncnc(N)c3C=NOCCN3CCOCC3)ccc2[nH]1 under target or system HER2 cytoplasmic domain (Homo sapiens, UniProt P04626): IC50 reported as ~10 µM

Record for CNc1ncnc(Oc2ccc3[nH]ccc3c2)c1C=NOC under target or system HER2 cytoplasmic domain (Homo sapiens, UniProt P04626): IC50 reported as > 100 µM

Record for CON=Cc1c(N)ncnc1Oc1ccc(NC(C)=O)c(Cl)c1 under target or system HER2 cytoplasmic domain (Homo sapiens, UniProt P04626): IC50 reported as > 100 µM

----------
Tested On: rat VEGF-R2 kinase domain (Rattus norvegicus, UniProt O08775)
Construct: amino acids 786-1343 of the rat VEGF-R2 kinase domain; polyhistidine (N)
Sequence (O08775 786-1343): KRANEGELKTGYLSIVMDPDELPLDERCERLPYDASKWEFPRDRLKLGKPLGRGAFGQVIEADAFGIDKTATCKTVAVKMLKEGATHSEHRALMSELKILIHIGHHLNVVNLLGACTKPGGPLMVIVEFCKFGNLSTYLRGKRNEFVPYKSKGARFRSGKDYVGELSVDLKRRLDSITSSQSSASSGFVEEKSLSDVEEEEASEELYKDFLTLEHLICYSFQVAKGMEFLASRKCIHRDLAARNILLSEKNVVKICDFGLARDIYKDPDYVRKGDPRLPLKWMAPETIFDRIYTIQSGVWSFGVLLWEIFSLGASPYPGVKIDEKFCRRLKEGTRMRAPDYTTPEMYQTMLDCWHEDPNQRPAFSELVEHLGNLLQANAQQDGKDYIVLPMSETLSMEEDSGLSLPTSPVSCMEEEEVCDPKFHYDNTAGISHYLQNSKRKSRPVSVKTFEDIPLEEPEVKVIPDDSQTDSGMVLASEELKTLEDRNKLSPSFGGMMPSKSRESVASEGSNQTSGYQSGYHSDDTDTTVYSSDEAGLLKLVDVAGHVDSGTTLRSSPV
Method Notes: VEGF-R2 Screening Assay
Assay type: biochemical
Assay Setup: > means no observed 50% inhibition at the indicated test concentration; ~ means approximately 50% inhibition at that concentration; read-out: IC50 VEGF-R2
Entries and their measured pIC50 follow.
Friendly reminder that pIC50 comes from taking -log10 of the concentration in mol/L.

Reference set, count: 5
Compound: CCCCNC(=O)Nc1ccc(Oc2ncnc(N)c2C=NOC)cc1Cl
pIC50: 8.14

Compound: CON=Cc1c(N)ncnc1Oc1ccc(NC(=O)Nc2ccc(OC)cc2)c(Cl)c1 [Cpd 62]
pIC50: 8.80

Compound: CON=Cc1c(N)ncnc1Oc1ccc(NC(=O)Nc2ccc(F)cc2)c(Cl)c1
pIC50: 8.55

Compound: CON=Cc1c(N)ncnc1Oc1ccc(NC(=O)Nc2ccccc2C)c(Cl)c1
pIC50: 8.10

Compound: CON=Cc1c(N)ncnc1Oc1ccc(NC(=O)NCc2ccc(F)cc2F)c(Cl)c1
pIC50: 7.99

CON=Cc1c(N)ncnc1Oc1ccc(NC(=O)Nc2nc(C)c(C)s2)c(Cl)c1 yielded pIC50 of 8.70

CON=Cc1c(N)ncnc1Oc1ccc(NC(=O)NCCO)c(Cl)c1 yielded pIC50 of 6.77

CON=Cc1c(N)ncnc1Oc1ccc(NC(=O)Nc2nccs2)c(Cl)c1 yielded pIC50 of 8.47

CNC(=O)Nc1ccc(Oc2ncnc(N)c2C=NOC)c(Cl)c1 yielded pIC50 of 6.56

Reference source for all entries: patent US8013153B2
